Data credit: patent US20260193326A1

- tested system: T1, AAV8
- T1 construct: also called adeno-associated virus serotype 8
- assay protocol: SPR, AAV on CM5 chip;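 note: surface plasmon resonance with AAV amine-coupled to the chip as ligand, nanobodies injected as analyte over a concentration series, rate constants and affinity fitted from binding curves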
metric name: Kd
Phrase the answer as number then unit, nothing more needed.

Quick check: Kd of A4-007 (VHH) VHH: VQLQESGGGLVQAGGSLRLSCAASGRHFSINTMGWYRQAPGKQRELVAAVTRGGSTNYAGSVKGRFTISRDNAKNTVYLQMNSLRPEDTAVYYCHIDEVRQSSWTTSNIWGQGTQVTVSS ?
47.4 nM

Another binder to look at: A4-022 (VHH) VHH: VQLQESGGGLVQPGGSLRLSCAASGSGFSINTMGWYRQAPGKQRELVATVTRDGSTNYADFVKGRFTISRDNAKNTVYLQMNSLRPEDTAVYYCHLDEVRESSWTTSNLWGQGTQVTVSS
1.19 nM

Another binder to look at: A4-042 (VHH) VHH: VQLQESGGGLVQPGGSLRLSCAASGRAFSINTMGWYRQAPGKQRELVATVTRDGSTNYADSVKGRFTISRDNAKNTVYLQMNSLRPEDTAVYYCHVDEVRQSSWTTSNLWGQGTQVTVSS
125 nM

Another binder to look at: A4-004 (VHH) VHH: VQLQESGGGLVQPGGSLRLSCAASGSRFSINTMGWYRQAPGKQRELVAAVTRGGSTNYAGSVKGRFTISRDNAKNTVYLQMNSLRPEDTAVYYCHIDEVRQSSWTTSNIWGQGTQVTVSS
1.71 nM
